Attribution: PubChem BioAssay

Biological target: Luciferin 4-monooxygenase (Photinus pyralis) (UniProt P08659)
Sequence (P08659 whole entry, looked up): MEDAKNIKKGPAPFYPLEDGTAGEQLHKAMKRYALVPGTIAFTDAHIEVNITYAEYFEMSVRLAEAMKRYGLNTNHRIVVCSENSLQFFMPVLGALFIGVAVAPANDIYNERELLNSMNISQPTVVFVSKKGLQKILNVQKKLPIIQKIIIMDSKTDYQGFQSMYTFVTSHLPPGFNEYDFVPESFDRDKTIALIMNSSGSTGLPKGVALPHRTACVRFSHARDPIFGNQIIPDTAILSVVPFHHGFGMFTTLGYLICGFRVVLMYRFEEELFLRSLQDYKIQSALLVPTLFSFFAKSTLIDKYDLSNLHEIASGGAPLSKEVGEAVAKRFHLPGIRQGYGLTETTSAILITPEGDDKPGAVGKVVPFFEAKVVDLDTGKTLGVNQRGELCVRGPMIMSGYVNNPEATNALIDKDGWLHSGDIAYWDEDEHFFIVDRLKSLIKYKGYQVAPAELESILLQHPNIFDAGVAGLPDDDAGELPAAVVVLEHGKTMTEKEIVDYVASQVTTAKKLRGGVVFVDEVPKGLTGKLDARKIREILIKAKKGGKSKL
Test: firefly luciferase enzyme inhibitors, primary screen, biochemical, luminescence, purified enzyme, 2006 set (AID 1141);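 further: cell-free assay with purified firefly luciferase at 100 ng per well in PBS; test concentration not given here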
Details: SteadyGlo luminescence, 30 min, higher = more signal, called active from +8 up or from −8 down
Assay endpoint: z-score
Give the figure only, with no unit attached.

Item: CC(C)[C@H]1NC(=O)[C@@]23C(=O)N[C@@H](Cc4ccccc4)C2[C@H](C)[C@@]2(C)O[C@H]2C3/C=C/C/C=C\CNC(=O)[C@H](C)NC1=O (stereo partly drawn) | z-score: -0.0632

Item: COC(=O)[C@@]1(Cc2ccc(OC)cc2)[C@H]2c3cc(C(=O)N(C)C)n(CCc4ccc(OC)c(Br)c4)c3C[C@H]2CN1C(=O)c1ccccc1 | z-score: 0.253

Item: NC(=O)[C@H]1[C@@H]2C(=O)O[C@@H](c3ccccc3)[C@@H](c3ccccc3)N2[C@@H](c2ccc(O)cc2)[C@]12C(=O)Nc1ccc(C#CCCO)cc12 | z-score: -0.0824

* * *

Assay: binders of probe aFST on microarray, primary screen, stem cell growth factor project, biochemical, small-molecule microarray, fluorescence 635/667 (AID 1086);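 further: score merges 667 nm fluorescence with signal-to-noise of each printed compound spot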
Details: higher = more signal
Provide the reported composite z-score of each item.
Give the figure only, with no unit attached.

Item: Cc1ccc(S[C@]2(C(=O)NCCCN(C)C)CC(=O)N(Cc3ccccc3)[C@@H]2c2ccc(CO)cc2I)cc1 | composite z-score: 1.04

Item: CCCCCCc1nc(-c2cc(C)c(OC)c(C)c2)cc2c1[Si](C(C)C)(C(C)C)O[C@H]2c1ccccc1 | composite z-score: 0.0223

Item: C[C@H]1C2[C@H](Cc3ccccc3)NC(=O)[C@]23C(=O)N[C@H](Cc2ccccc2)C(=O)N[C@@H](Cc2ccccc2)C(=O)NC/C=C\C/C=C/C3[C@@H]2O[C@]12C (some centres undefined) | composite z-score: -0.137

Item: O=C1C2C=CC(C(O)Cc3ccccc3)N(Nc3ccc([N+](=O)[O-])cc3)C2C(=O)N1c1ccccc1 (centres undefined) | composite z-score: 0.638

* * *

Assay: binders of probe aFSTL3 on microarray, primary screen, stem cell growth factor project, biochemical, small-molecule microarray, fluorescence 635/667 (AID 1064);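 further: measures binding of the biotinylated anti-FSTL3 antibody to printed compounds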
Settings: higher = more signal
Assay endpoint: composite z-score
Give the figure only, with no unit attached.

Item: COC(=O)[C@@]1(Cc2ccccc2N=[N+]=[N-])N=C(c2ccc(OCCCO)cc2)O[C@H]1c1ccccc1CN=[N+]=[N-] | composite z-score: 0.413

Item: COC(=O)C[C@H]1O[C@]2(C(=O)N(C)c3ccccc32)[C@@H](C)[C@@H]1[Si](C)(C)c1ccc(OC)cc1 | composite z-score: -0.352

Item: CCC(=O)[C@]12O[C@@]3([C@@H]4C(=O)OCC[C@@H]41)N(Cc1ccccc1)C(C)=C(C(=O)OC)[C@@H](c1ccccc1)N3C2=O | composite z-score: 0.232

Item: C=CCN1C(=O)[C@@]2(Cc3ccccc3)N=C(c3ccc(OCCCO)cc3)O[C@H]2c2ccccc21 | composite z-score: 1.02

Item: CN(C)CCCC[C@@H]1NC(=O)[C@@H]2C[C@H](C(=O)O)[C@H](c3ccc(O)cc3)N2C1=O | composite z-score: 0.491

Item: CCOC(=O)C1=C[C@@H](c2ccccc2)N(S(=O)(=O)c2ccc(C)cc2)[C@H]1c1ccc(F)cc1 | composite z-score: -0.0809

Item: C=CCC(OC(C)=O)[C@@H]1[C@@H](N(Cc2ccc(-c3ccccc3)cc2)C(=O)c2ccc(C)cc2)c2cc(OCCCO)ccc2N1C(=O)c1ccc(-c2ccccc2)cc1 (some centres not stated) | composite z-score: -0.0264

* * *

Assay: small-molecule microarray binders of probe aNog, primary screen, biochemical, biotinylated probe, 635/667 nm fluorescence (AID 1115);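 further: probe is biotinylated aNog protein used at 0.15 µg/mL for 1 h at 4 C; z-score combines 667 nm fluorescence of each spot with its signal to noise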
Conditions: higher = more signal
Assay endpoint: composite z-score
Give the figure only, with no unit attached.

Item: Cc1ccc(S[C@]2(C(=O)NCCN3CCOCC3)CC(=O)N(C3Cc4ccccc4C3)[C@@H]2c2ccc(CO)cc2I)cc1 | composite z-score: 0.79

Item: NC(=O)[C@H]1[C@@H]2C(=O)O[C@@H](c3ccccc3)[C@@H](c3ccccc3)N2[C@@H](c2ccc(O)cc2)[C@]12C(=O)Nc1ccc(C#CCCO)cc12 | composite z-score: -0.158

Item: CN1C2C=C(c3ccc(CO)cc3)C(C3C(=O)N(C(N)=O)C(=O)C32)C1c1cccs1 (centres undefined) | composite z-score: 0.408

Item: CO[C@H]1COC(=O)CC=C[C@H](C)[C@@H](OC)COC(=O)CC=C[C@@H]1C | composite z-score: -0.63

Item: COc1ccc([Si](C)(C)[C@H]2[C@H](CCO)O[C@@]3(C(=O)N(Cc4ccccc4)c4ccc(N5C(=O)c6cccc7cccc5c67)cc43)[C@@H]2C)cc1 | composite z-score: 0.0936

Item: CN1CCC(CCCO)=CC1C1CC1 (centres undefined) | composite z-score: -0.473

Item: CCCC=C(CCC)[C@@H](NC(=O)c1ccccc1)c1ccccc1 | composite z-score: 0.766

Item: Cc1ccc(S[C@]2(C(=O)NC3CC3)CC(=O)N(Cc3cc(C(F)(F)F)cc(C(F)(F)F)c3)[C@@H]2c2ccc(CO)cc2)cc1 | composite z-score: -0.491

Item: CO[C@]12C=C(Br)[C@@H](C[C@@H]1c1ccccc1)[C@@]1(CO1)C2=O | composite z-score: 0.0256

Item: C=CCNC(=O)[C@H]1[C@@H]2C(=O)O[C@@H](c3ccccc3)[C@@H](c3ccccc3)N2[C@@H](c2ccc(O)cc2)[C@]12C(=O)Nc1ccc(C#CCNC(N)=O)cc12 | composite z-score: 0.0863

Item: COC(=O)C(CC#Cc1ccc2c(c1)[C@]1(C(=O)N2)[C@H](C(=O)N2CCCCCCC2)[C@H]2C(=O)O[C@H](c3ccccc3)[C@H](c3ccccc3)N2[C@@H]1c1ccc(O)cc1)C(=O)OC | composite z-score: -0.411

Item: COCCOC(=O)N1C(=O)[C@@]2(c3cc(C#CCCO)ccc31)[C@H](c1ccc(OCCO)cc1)N1[C@H](c3ccccc3)[C@H](c3ccccc3)OC(=O)[C@H]1[C@@H]2C(=O)NC[C@H](O)c1ccccc1 | composite z-score: -0.213

Item: CC(C)[Si](OCC[C@H]1O[C@]2(C(=O)N(Cc3ccccc3)c3ccccc32)[C@@H](C)[C@@H]1[Si](C)(C)O)(C(C)C)C(C)C | composite z-score: 0.0073

Item: COc1cc2c(cc1OC)CN(C(=O)[C@H]1[C@@H]3C(=O)O[C@@H](c4ccccc4)[C@@H](c4ccccc4)N3[C@@H](c3ccc(O)cc3)[C@]13C(=O)Nc1ccc(C#CC4(O)CCCCCC4)cc13)CC2 | composite z-score: 2.35

Item: CCCC=C(CCC)[C@@H](NC(=O)c1ccc(C(F)(F)F)cc1)c1ccccc1 | composite z-score: 0.644

Item: O=C/C=C/c1ccccc1Cl | composite z-score: 0.0811

Item: CCCNC(=O)[C@@]1(Sc2ccc(C)cc2)CC(=O)N(Cc2ccccc2Cl)[C@@H]1c1ccc(CO)cc1 | composite z-score: 0.0021

Item: COc1ccc([Si](C)(C)[C@@H]2[C@@H](CCO)O[C@]3(C(=O)N(Cc4ccccc4)c4ccccc43)[C@H]2C)cc1 | composite z-score: 0.202

Item: O=C1C[C@@](C(=O)NCCN2CCOCC2)(c2ccc([N+](=O)[O-])cc2)[C@@H](c2ccc(CO)cc2)N1C1CCCCC1 | composite z-score: 0.924

Item: Cc1ccc(S(=O)(=O)c2cc3oc2CC[C@@H](CO)NC(=O)N(C)Cc2cn(nn2)C[C@H](Cc2ccccc2)NC3=O)cc1 | composite z-score: 0.402

Item: C[N+](C)(C)CCCC[C@@H]1NC(=O)[C@H]2C[C@@H](C(=O)NCc3ccc(F)cc3)[C@@H](c3cccc(OCCO)c3)N2C1=O | composite z-score: 0.0519

Item: Cc1ccc(S[C@]2(C(=O)NC(C)C)CC(=O)N(C3Cc4ccccc4C3)[C@@H]2c2ccc(CO)cc2)cc1 | composite z-score: -0.315

Item: Cc1ccc([C@@H]2CC=C(C(=O)O)[C@H](c3ccccc3)N2S(=O)(=O)c2ccc(C)cc2)cc1 | composite z-score: 1.05

Item: O=C(NCC(F)(F)F)[C@@H]1c2ccccc2C(=O)N(Cc2ccccc2Cl)[C@H]1c1ccc(CO)cc1 | composite z-score: -0.0689

Item: C=C(C)[C@@H]1CC=C(C(O)C2C=CC3C(=O)NC(=O)C3N2Nc2ccccn2)CC1 (some centres undefined) | composite z-score: 0.145

Item: CO[C@H]1COC(=O)CC=C[C@@H](C)COC(=O)[C@@H](C)NC(=O)CC=C[C@@H]1C | composite z-score: -0.139

Item: CCC(=O)[C@]12O[C@@]3([C@@H]4C(=O)OCC[C@@H]41)N(CC)C(C)=C(C(=O)OC)[C@@H](c1ccccc1)N3C2=O | composite z-score: -0.131

Item: COCCOC(=O)N1C(=O)[C@@]2(c3cc(C#CC4=CCCCC4)ccc31)[C@H](C(=O)NC[C@H](O)c1ccccc1)[C@H]1C(=O)O[C@H](c3ccccc3)[C@H](c3ccccc3)N1[C@@H]2c1ccccc1OCCO | composite z-score: 0.216

Item: Cc1ccc(S(=O)(=O)N[C@H]2COC(=O)CC=C[C@H](C)COC(=O)N[C@@H](C)C(=O)CC=C[C@@H]2C)cc1 | composite z-score: -0.345
